- System: mGluR2 receptor (metabotropic glutamate receptor 2) (Homo sapiens)
- Construct: expressed in transfected cells
- Measurement Protocol: mGluR2 Potentiator Screen, FLIPR, EC10-EC20 glutamate challenge
- Assay type: cell-based
- Experimental Context: read-out: EC50
This listing pairs molecules with measured pEC50.
The quantity pEC50 is defined as the negative base-10 logarithm of the molar concentration.

compound_structure=CCCCN1CC2(CCN(Cc3nc4ccccc4n3C)CC2)c2cc(C)ccc21 observation_type=pEC50 recorded_value=5.71

-- ask Which pEC50 is listed for CC(C)CN1CC2(CCN(Cc3nc4ccccc4n3C)CC2)c2cc(F)ccc21 ?
-- reply 5.19

-- ask And the next one, Cc1ccc2c(c1)C1(CCN(Cc3nc4ccccc4n3C)CC1)CN2C(=O)c1ccco1 ?
-- reply 5.74

-- ask Follow-up item: COc1ccccc1C1CCN(Cc2nc3cccc(F)c3n2C)CC1
-- reply 7.78

-- ask Follow-up entry: Cc1ccc2nc(CN3CCC(c4ccccc4F)CC3)n(C)c2c1
-- reply 6.49

-- ask # iterate: Cn1c(CN2CC[C@H]3c4ccccc4OC[C@H]3C2)nc2ccccc21
-- reply 5.68

-- ask Record: Cn1c(CN2CCC3(CC2)CN(C(=O)c2ccc(C#N)cc2)c2ccccc23)nc2ccccc21
-- reply 5.76

-- ask Input COc1ccc(C2CCN(Cc3nc4ccccc4n3C)CC2)cc1
-- reply 6.67

-- ask Entry Cn1c(CN2CCC(c3ccc(C(F)(F)F)cc3)CC2)nc2cc(Cl)ccc21 please
-- reply 5.80

-- ask Repeat for the following molecule: Cn1c(CN2CCC(c3ccccc3F)CC2)nc2ccc(-c3ccccc3)cc21
-- reply 6.69

-- ask For CCC(=O)N1CC2(CCN(Cc3nc4ccccc4n3C)CC2)c2cc(F)ccc21 then?
-- reply 5.47

-- ask Entry to check: Cn1c(CN2CCC(c3ccc(Cl)cc3F)CC2)nc2ccccc21
-- reply 8.12

-- ask And for COc1ccc(C(F)(F)F)cc1C1CCN(Cc2nc3ccccc3n2C2CC2)CC1 ?
-- reply 5.33

-- ask Please give the result for Cn1c(CN2CCC(F)(c3ccc(F)cc3)CC2)nc2ccccc21 too.
-- reply 6.51

-- ask Note, next up: FCn1c(CN2CCC(c3ccccc3C(F)(F)F)CC2)nc2ccccc21
-- reply 6.37

-- ask Same for Cn1c(CN2CCC(c3ccc(OC(F)(F)F)cc3)CC2)nc2ccccc21
-- reply 6.70

-- ask Field entry: COc1ccccc1C1CCN(Cc2nc3cc(F)c(F)cc3n2C)CC1
-- reply 7.09

-- ask Now consider COc1ccccc1C1CCN(Cc2nc3cc(Br)ccc3n2C)CC1 .
-- reply 6.62

====

- System: mGluR2 receptor (metabotropic glutamate receptor 2) (Homo sapiens)
- Construct: expressed in transfected cells
- Measurement Protocol: mGluR2 Potentiator Screen, FLIPR, EC10-EC20 glutamate challenge
- Assay type: cell-based
- Experimental Context: mGluR2 potentiator screen, Table 7; read-out: EC50
Quick rule for you: EC50 under 700 nM gets Satisfied, anything else gets Not satisfied.

compound=CCCCOc1ccc(Cl)cc1C1CCN(Cc2nc3ccccc3n2CF)CC1 cat=Satisfied
compound=COc1ccc(OC)c(C2CCN(Cc3nc4c(Br)cccc4n3C)CC2)c1 cat="Not satisfied"
compound="CC1CC1COc1ccc(Cl)cc1C1CCN(Cc2nc3ccccc3n2C)CC1 (stereo not drawn)" cat=Satisfied
compound=Cn1c(CN2CCC(c3cc(Cl)ccc3OCC3CCC3)CC2)nc2ccccc21 cat=Satisfied
compound=CC(C)COc1ccc(Cl)cc1C1CCN(Cc2nc3ccccc3n2C)CC1 cat=Satisfied

-- ask Quick check: EC50 of CCOc1ccc(Cl)cc1C1CCN(Cc2nc3ccccc3n2C)CC1 under 700 nM?
-- reply Not satisfied

-- ask What would you report for CC1(COc2ccc(Cl)cc2C2CCN(Cc3nc4ccccc4n3CF)CC2)COC1 ?
-- reply Not satisfied

-- ask CCCCOc1ccc(Cl)cc1C1CCN(Cc2nc3ccccc3n2CCF)CC1 ?
-- reply Satisfied

====

- System: mGluR2 receptor (metabotropic glutamate receptor 2) (Homo sapiens)
- Construct: expressed in transfected cells
- Measurement Protocol: mGluR2 Potentiator Screen, FLIPR, EC10-EC20 glutamate challenge
- Assay type: cell-based
- Experimental Context: read-out: EC50
Listing of entries alongside the reported EC50.
Enter your answer as a number in nM; do not include the unit.

Some entries whose results are on file:
compound_structure=CCCN1CC2(CCN(Cc3nc4ccccc4n3C)CC2)c2cc(C)ccc21 system="mGluR2 receptor (metabotropic glutamate receptor 2) (Homo sapiens)" recorded_value=2370
compound_structure=CCOc1ccc(C2CCN(Cc3nc4ccccc4n3C)CC2)cc1 system="mGluR2 receptor (metabotropic glutamate receptor 2) (Homo sapiens)" recorded_value=80.7
compound_structure=C#CCOc1ccc(Cl)cc1C1CCN(Cc2nc3ccccc3n2CF)CC1 system="mGluR2 receptor (metabotropic glutamate receptor 2) (Homo sapiens)" recorded_value=302
compound_structure=COc1ccccc1C1CCN(Cc2nc3cc(N)ccc3n2C)CC1 system="mGluR2 receptor (metabotropic glutamate receptor 2) (Homo sapiens)" recorded_value=1510

-- ask Returns the measured EC50 for the input molecule. Input: Cc1ccc2c(c1)C1(CCN(Cc3nc4ccccc4n3C)CC1)CN2C(=O)c1c(C)noc1C
-- reply 2040

-- ask Entry to check: Cn1c(CN2CCC(c3ccccc3F)CC2)nc2c(F)cccc21
-- reply 33.8

-- ask Same lookup for Cn1c(CN2CCC(c3ccc(F)cc3F)CC2)nc2cc(F)ccc21 , please.
-- reply 35.2

====

- System: mGluR2 receptor (metabotropic glutamate receptor 2) (Homo sapiens)
- Construct: expressed in transfected cells
- Measurement Protocol: mGluR2 Potentiator Screen, FLIPR, EC10-EC20 glutamate challenge
- Format: cell-based
- Experimental Context: read-out: EC50
pEC50: −log10 of the molar value.
Assign class by pEC50: not lower than 7 means t; lower than 7 means f.

For orientation, consider the following solved cases.
molecule=Cn1c(CN2CCC3(CC2)CN(C(=O)C2CC2)c2ccc(Cl)cc23)nc2ccccc21 cat=f
molecule="Cn1c(CN2CCC(c3ccccc3)CCC2=O)nc2ccccc21 (centres unmarked)" cat=f
molecule="Cn1c(CN2CCC3(CC2)CN(C(=O)C2COc4ccccc4O2)c2ccccc23)nc2ccccc21 (centres unmarked)" cat=f
molecule=Cn1c(CN2CCC(c3ccccc3F)CC2)nc2cccc(F)c21 cat=t

-- ask Please check the record COc1cc(C(F)(F)F)ccc1C1CCN(Cc2nc3c(F)cccc3n2C)CC1 [compound 400] and state if its pEC50 is at or above 7.
-- reply t

-- ask Now the molecule Cc1cc(C(=O)N2CC3(CCN(Cc4nc5ccccc5n4C)CC3)c3ccccc32)n(C)n1
-- reply f

====

- System: mGluR2 receptor (metabotropic glutamate receptor 2) (Homo sapiens, UniProt Q14416)
- Construct: expressed in transfected cells
- Sequence (Q14416 19-872, species assumed): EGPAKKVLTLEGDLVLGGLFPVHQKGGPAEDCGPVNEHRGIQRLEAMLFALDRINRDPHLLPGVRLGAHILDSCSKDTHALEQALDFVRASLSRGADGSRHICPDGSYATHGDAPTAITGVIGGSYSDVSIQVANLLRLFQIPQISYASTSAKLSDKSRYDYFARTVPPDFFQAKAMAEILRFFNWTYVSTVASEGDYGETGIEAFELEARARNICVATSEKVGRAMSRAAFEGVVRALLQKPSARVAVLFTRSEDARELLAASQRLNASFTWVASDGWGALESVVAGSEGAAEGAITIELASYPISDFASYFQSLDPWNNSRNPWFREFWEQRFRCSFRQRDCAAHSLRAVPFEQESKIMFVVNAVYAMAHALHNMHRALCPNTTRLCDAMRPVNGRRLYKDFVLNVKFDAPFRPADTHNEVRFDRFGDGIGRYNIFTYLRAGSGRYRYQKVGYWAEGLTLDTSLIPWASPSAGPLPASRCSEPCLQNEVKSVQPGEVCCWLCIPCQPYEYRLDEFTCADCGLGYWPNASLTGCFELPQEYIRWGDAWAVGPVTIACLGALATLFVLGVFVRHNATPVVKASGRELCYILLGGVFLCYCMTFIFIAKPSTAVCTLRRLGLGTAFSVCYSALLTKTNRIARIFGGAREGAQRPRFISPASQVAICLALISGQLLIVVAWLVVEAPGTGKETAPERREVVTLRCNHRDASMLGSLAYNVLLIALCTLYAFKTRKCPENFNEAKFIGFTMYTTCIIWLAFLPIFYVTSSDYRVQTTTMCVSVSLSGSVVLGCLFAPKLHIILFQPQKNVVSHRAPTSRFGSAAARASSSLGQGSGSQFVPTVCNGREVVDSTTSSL
- Measurement Protocol: mGluR2 Potentiator Screen, FLIPR, EC10-EC20 glutamate challenge
- Assay type: cell-based
- Experimental Context: read-out: EC50
List of EC50 values.
# number only, unit nM dropped from output

Example cases with answers are listed next.
compound=COCCn1c(CN2CCC(c3cc(C(F)(F)F)ccc3F)CC2)nc2ccccc21 observation_type=EC50 u=nM recorded_value=263
compound=Cn1c(CN2CCC(c3cc(C(F)(F)F)ccc3F)CC2)nc2cc(C#N)ccc21 observation_type=EC50 u=nM recorded_value=441
compound=Fc1ccc(C2CCN(Cc3nc4ccccc4n3C3CC3)CC2)cc1 observation_type=EC50 u=nM recorded_value=1770

-- ask Record COc1ccc2nc(CN3CCC(c4ccccc4F)CC3)n(C)c2c1 : what is its EC50 with mGluR2 receptor (metabotropic glutamate receptor 2) (Homo sapiens, UniProt Q14416)?
-- reply 46.6

-- ask Do the same for Cn1c(CN2CCC(O)(c3cc(Br)cc(Br)c3)CC2)nc2ccccc21 please
-- reply 1240

====

- System: mGluR2 receptor (metabotropic glutamate receptor 2) (Homo sapiens)
- Construct: expressed in transfected cells
- Measurement Protocol: mGluR2 Potentiator Screen, FLIPR, EC10-EC20 glutamate challenge
- Format: cell-based
- Experimental Context: read-out: EC50
Observation Type: EC50 (nM)
Number in nM, nothing else.

molecule="COCn1c(CN2CCC(c3cc(C(F)(F)F)ccc3F)CC2)nc2ccccc21 [compound 330]" system="mGluR2 receptor (metabotropic glutamate receptor 2) (Homo sapiens)" observation_type=EC50 recorded_value=969
molecule="FC(F)(F)c1ccc(C2CCN(Cc3nc4ccccc4n3C3CC3)CC2)cc1 [compound 247]" system="mGluR2 receptor (metabotropic glutamate receptor 2) (Homo sapiens)" observation_type=EC50 recorded_value=821
molecule="Cn1c(CN2CCC(c3ccccc3F)CC2)nc2cc(Br)ccc21 [compound 269]" system="mGluR2 receptor (metabotropic glutamate receptor 2) (Homo sapiens)" observation_type=EC50 recorded_value=445
molecule="CCCN1CC2(CCN(Cc3nc4ccccc4n3C)CC2)c2ccccc21 [compound 130]" system="mGluR2 receptor (metabotropic glutamate receptor 2) (Homo sapiens)" observation_type=EC50 recorded_value=3080
molecule="Cn1c(CN2CCC(c3cc(Cl)ccc3F)CC2)nc2cc(C#N)ccc21 [compound 387]" system="mGluR2 receptor (metabotropic glutamate receptor 2) (Homo sapiens)" observation_type=EC50 recorded_value=201

-- ask Need EC50 of COc1ccc(Cl)cc1C1CCN(Cc2nc3ccccc3n2CCF)CC1 [compound 233] , thanks.
-- reply 264

-- ask Now consider CC(C)Oc1ccccc1C1CCN(Cc2nc3ccccc3n2C)CC1 [compound 78] and answer again.
-- reply 475

-- ask Please give the result for Cn1c(CN2CCC(c3cccc(C#N)c3)CC2)nc2ccccc21 [compound 418] too.
-- reply 1610

-- ask What do we get for C[C@@H]1CN(Cc2ccc(C3CCN(Cc4nc5ccccc5n4C)CC3)cc2)C[C@H](C)O1 [compound 455] ?
-- reply 2590

-- ask Okay, and Cn1c(CN2CCC(c3ccc(C(=O)NC4CCCC4)cc3)CC2)nc2ccccc21 [compound 437] ?
-- reply 5270

-- ask Now consider C#CCOc1ccc(Cl)cc1C1CCN(Cc2nc3ccccc3n2CCF)CC1 [compound 236] and answer again.
-- reply 74.1

-- ask Quick one: COc1ccc(F)cc1C1CCN(Cc2nc3ccccc3n2C)CC1 [compound 300]
-- reply 60.7

-- ask What about COc1ccccc1C1CCN(Cc2nc3c(Cl)cccc3n2C)CC1 [compound 270] ?
-- reply 838

-- ask How about this molecule: Cn1c(CN2CCC(c3ccc(F)cc3)CC2)nc2cccc(F)c21 [compound 342]
-- reply 55.2

-- ask Another: COc1ccccc1[C@]1(C)CCN(Cc2nc3ccccc3n2C2CC2)C[C@@H]1C [compound 322]
-- reply 9930

-- ask Now try Cn1c(CN2CCC(c3ccc(Cl)cc3)CC2)nc2ccccc21 [compound 420] .
-- reply 664

-- ask Also, Cn1c(CN2CCC(c3cc(F)cc(F)c3)CC2)nc2cc(F)ccc21 [compound 376] please.
-- reply 299

-- ask Record: CC(=O)N1CC2(CCN(Cc3nc4ccccc4n3C)CC2)c2cc(C)ccc21 [compound 22]
-- reply 3830
